PROTOCOL: Metabolic stability in mouse liver microsomes
Type: ADME, Microsome
MEASUREMENT_NAME: half-life

COc1ccc(CN(C)C)c(-c2cc3c(Nc4ccc5[nH]ccc5c4C)c(C#N)cnc3s2)c1    < 10 min

====

TEST_SYSTEM: MAP kinase-activated protein kinase 2 (Homo sapiens, UniProt P49137)
Sequence (P49137 whole entry): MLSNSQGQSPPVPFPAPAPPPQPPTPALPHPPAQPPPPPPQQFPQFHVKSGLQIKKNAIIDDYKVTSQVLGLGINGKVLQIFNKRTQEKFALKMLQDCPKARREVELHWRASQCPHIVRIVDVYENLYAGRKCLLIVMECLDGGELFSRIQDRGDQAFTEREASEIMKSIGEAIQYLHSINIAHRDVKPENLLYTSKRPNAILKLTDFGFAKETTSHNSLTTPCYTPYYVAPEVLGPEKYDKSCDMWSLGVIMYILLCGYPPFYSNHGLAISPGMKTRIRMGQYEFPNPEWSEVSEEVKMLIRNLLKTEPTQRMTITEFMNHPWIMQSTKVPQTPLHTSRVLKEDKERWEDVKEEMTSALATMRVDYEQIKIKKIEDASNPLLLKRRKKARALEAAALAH
PROTOCOL: Inhibition of MK2
MEASUREMENT_NAME: IC50

COc1ccc(CN(C)C)c(-c2cc3c(Nc4ccc5[nH]ccc5c4C)c(C#N)cnc3s2)c1    > 5 µM

====

TEST_SYSTEM: Protein kinase C delta type (Homo sapiens, UniProt Q05655)
Sequence (Q05655 whole entry): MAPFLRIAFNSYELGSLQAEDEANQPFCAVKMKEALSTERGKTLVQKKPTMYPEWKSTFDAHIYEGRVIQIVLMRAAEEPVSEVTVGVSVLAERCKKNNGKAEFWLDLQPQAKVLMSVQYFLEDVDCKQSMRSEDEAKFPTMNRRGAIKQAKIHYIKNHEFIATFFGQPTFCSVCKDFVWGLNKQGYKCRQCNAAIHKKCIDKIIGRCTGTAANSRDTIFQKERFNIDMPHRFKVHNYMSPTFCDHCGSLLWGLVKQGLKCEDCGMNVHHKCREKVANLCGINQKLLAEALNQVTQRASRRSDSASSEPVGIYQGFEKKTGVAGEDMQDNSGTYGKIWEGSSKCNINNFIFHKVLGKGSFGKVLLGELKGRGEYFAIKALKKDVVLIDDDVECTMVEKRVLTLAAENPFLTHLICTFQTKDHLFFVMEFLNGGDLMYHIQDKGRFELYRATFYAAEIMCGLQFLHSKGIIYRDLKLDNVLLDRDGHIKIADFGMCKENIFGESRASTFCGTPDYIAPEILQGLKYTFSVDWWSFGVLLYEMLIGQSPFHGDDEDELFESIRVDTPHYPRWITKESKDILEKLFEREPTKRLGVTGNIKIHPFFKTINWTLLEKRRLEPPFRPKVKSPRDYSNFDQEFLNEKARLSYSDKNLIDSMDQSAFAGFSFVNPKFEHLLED
PROTOCOL: Inhibition of human full length PKCdelta
Parameter: IC50. Scope: all listed entries.
MEASUREMENT_NAME: IC50 (nM)

Cc1c(Nc2c(C#N)cnc3sc(-c4ccc(CN(C)C)cc4)cc23)ccc2[nH]ccc12    88
CCOc1ccc(CN(C)C)cc1-c1cc2c(Nc3ccc4[nH]ccc4c3C)c(C#N)cnc2s1    82
COc1ccc(CN(C)C)c(-c2cc3c(Nc4ccc5[nH]ccc5c4C)c(C#N)cnc3s2)c1    130
